system: human Factor XI mRNA; test: Dose-dependent inhibition and IC50 in HepG2 cells, microwalk gapmers, electroporation (Example 16); type: cell-based; conditions: electroporation, 750 nM
In the oligonucleotide strings, read from the 5' end, every base follows the letter of its sugar. An asterisk marks phosphorothioate; unmarked linkages are phosphodiester. Other units and linkages are bracketed, terminal groups are in braces. A string of capitals states the bases alone. e = 2'-O-(2-methoxyethyl) (MOE); [5mC] = 5-methylcytosine; d = 2'-deoxy (DNA)
Some substances, each annotated with its measured percent inhibition of Factor XI mRNA.
measurement.name: percent inhibition of Factor XI mRNA (%)

substance	measurement.name	numeric.value
449711 (antisense eA*e[5mC]*dA*dG*dT*dT*dT*d[5mC]*dT*dG*dG*d[5mC]*eA*eG) [compound 449711]	percent inhibition of Factor XI mRNA	14
449708 (antisense eA*e[5mC]*eA*dG*dT*dT*dT*d[5mC]*dT*dG*dG*e[5mC]*eA*eG) [compound 449708]	percent inhibition of Factor XI mRNA	0
449709 (antisense eG*e[5mC]*eA*e[5mC]*dA*dG*dT*dT*dT*d[5mC]*dT*dG*dG*d[5mC]*eA*eG*eG*e[5mC]) [compound 449709]	percent inhibition of Factor XI mRNA	71
445522 (antisense eG*e[5mC]*eA*e[5mC]*eA*dG*dT*dT*dT*d[5mC]*dT*dG*dG*e[5mC]*eA*eG*eG*e[5mC]) [compound 445522]	percent inhibition of Factor XI mRNA	71
416858 (antisense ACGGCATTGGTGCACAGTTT; 5-10-5 gapmer, wing sugar chemistry not given here, further chemistry not given here) [compound 416858]	percent inhibition of Factor XI mRNA	35
449710 (antisense e[5mC]*eA*e[5mC]*dA*dG*dT*dT*dT*d[5mC]*dT*dG*dG*d[5mC]*eA*eG*eG) [compound 449710]	percent inhibition of Factor XI mRNA	21
445531 (antisense eG*eG*e[5mC]*eA*eT*dT*dG*dG*dT*dG*d[5mC]*dA*d[5mC]*eA*eG*eT*eT*eT) [compound 445531]	percent inhibition of Factor XI mRNA	64
416850 (antisense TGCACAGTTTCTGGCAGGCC; 5-10-5 gapmer, wing sugar chemistry not given here, further chemistry not given here) [compound 416850]	percent inhibition of Factor XI mRNA	59
449707 (antisense e[5mC]*eA*e[5mC]*eA*dG*dT*dT*dT*d[5mC]*dT*dG*dG*e[5mC]*eA*eG*eG) [compound 449707]	percent inhibition of Factor XI mRNA	35

###

test system: human Factor XI mRNA; assay: Dose-dependent inhibition in HepG2 cells, lipofectin (Example 4); type: cell-based; conditions: 75 nM, 16 hours
In the oligonucleotide strings, read from the 5' end, every base follows the letter of its sugar. An asterisk marks phosphorothioate; unmarked linkages are phosphodiester. Other units and linkages are bracketed, terminal groups are in braces. A string of capitals states the bases alone. e = 2'-O-(2-methoxyethyl) (MOE); [5mC] = 5-methylcytosine; d = 2'-deoxy (DNA)
percent inhibition of Factor XI mRNA, relative to untreated control cells: recorded values
measurement.name: percent inhibition of Factor XI mRNA, relative to untreated control cells (%)

substance	numeric.value
416826 (antisense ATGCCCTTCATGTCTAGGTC; 5-10-5 gapmer, wing sugar chemistry not given here, further chemistry not given here) [compound 416826]	84
416989 (antisense eG*eA*dG*dA*dT*dT*d[5mC]*dT*dT*dT*dG*dG*dG*d[5mC]*d[5mC]*eA*eT*eT*e[5mC]*e[5mC]) [compound 416989]	83
416827 (antisense eT*eA*eT*eG*e[5mC]*d[5mC]*d[5mC]*dT*dT*d[5mC]*dA*dT*dG*dT*d[5mC]*eT*eA*eG*eG*eT) [compound 416827]	77
416850 (antisense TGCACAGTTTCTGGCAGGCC; 5-10-5 gapmer, wing sugar chemistry not given here, further chemistry not given here) [compound 416850]	84
416941 (antisense eG*eG*e[5mC]*dA*dG*d[5mC]*dG*dG*dA*d[5mC]*dG*dG*d[5mC]*dA*dT*dT*dG*eG*eT*eG) [compound 416941]	78

###

urine protein/creatinine ratio, After listing for selected substances.
assay: Tolerability in Sprague-Dawley rats: kidney function (Example 19); type: in vivo; details: Sprague Dawley rats, after 50 mg/kg s.c. twice per week for 6 weeks
measurement.name: urine protein/creatinine ratio, After

substance	numeric.value
416825 (antisense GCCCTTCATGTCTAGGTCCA; 5-10-5 gapmer, wing sugar chemistry not given here, further chemistry not given here) [compound 416825]	5.4
416858 (antisense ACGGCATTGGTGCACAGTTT; 5-10-5 gapmer, wing sugar chemistry not given here, further chemistry not given here) [compound 416858]	4.4
416838 (antisense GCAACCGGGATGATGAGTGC; 5-10-5 gapmer, wing sugar chemistry not given here, further chemistry not given here) [compound 416838]	3.7

###

# key: entry, value: Spleen weight
experiment: Cynomolgus monkeys: body and organ weights (Example 29); format: in vivo; conditions: after euthanasia
In the oligonucleotide strings, read from the 5' end, every base follows the letter of its sugar. An asterisk marks phosphorothioate; unmarked linkages are phosphodiester. Other units and linkages are bracketed, terminal groups are in braces. A string of capitals states the bases alone. e = 2'-O-(2-methoxyethyl) (MOE); [5mC] = 5-methylcytosine; d = 2'-deoxy (DNA)

substance	Spleen weight [g]
ISIS 416838: gapmer of Table 6 (antisense eG*e[5mC]*eA*eA*e[5mC]*d[5mC]*dG*dG*dG*dA*dT*dG*dA*dT*dG*eA*eG*eT*eG*e[5mC])	5
ISIS 417002: gapmer of Table 8 (antisense eG*eG*dT*dG*d[5mC]*dA*d[5mC]*dA*dG*dT*dT*dT*d[5mC]*dT*dG*eG*e[5mC]*eA*eG*eG)	5
ISIS 416864: gapmer of Table 8 (antisense eG*eG*e[5mC]*eA*eG*d[5mC]*dG*dG*dA*d[5mC]*dG*dG*d[5mC]*dA*dT*eT*eG*eG*eT*eG)	5
ISIS 416858: gapmer of Table 8 (antisense eA*e[5mC]*eG*eG*e[5mC]*dA*dT*dT*dG*dG*dT*dG*d[5mC]*dA*d[5mC]*eA*eG*eT*eT*eT)	12

###

Below, each entry is listed with its recorded urine protein/creatinine ratio, After.
experiment: Tolerability in Sprague-Dawley rats: kidney function (Example 19); type: in vivo; conditions: Sprague Dawley rats, after 50 mg/kg s.c. twice per week for 6 weeks

substance	urine protein/creatinine ratio, After
416864 (antisense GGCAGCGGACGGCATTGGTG; 5-10-5 gapmer, wing sugar chemistry not given here, further chemistry not given here) [compound 416864]	4.0
416826 (antisense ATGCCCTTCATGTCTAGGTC; 5-10-5 gapmer, wing sugar chemistry not given here, further chemistry not given here) [compound 416826]	11.4
416850 (antisense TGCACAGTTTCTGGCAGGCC; 5-10-5 gapmer, wing sugar chemistry not given here, further chemistry not given here) [compound 416850]	4.0
417002 (antisense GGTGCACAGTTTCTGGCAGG; 2-13-5 gapmer, wing sugar chemistry not given here, further chemistry not given here) [compound 417002]	2.4
416925 (antisense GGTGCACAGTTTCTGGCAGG; 3-14-3 chimeric gapmer, wing sugar chemistry not given here, further chemistry not given here) [compound 416925]	4.3

###

test system: human Factor XI mRNA; assay: Dose-dependent inhibition in HepG2 cells, lipofectin (Example 4); assay type: cell-based; settings: 75 nM, 16 hours
In the oligonucleotide strings, read from the 5' end, every base follows the letter of its sugar. An asterisk marks phosphorothioate; unmarked linkages are phosphodiester. Other units and linkages are bracketed, terminal groups are in braces. A string of capitals states the bases alone. e = 2'-O-(2-methoxyethyl) (MOE); [5mC] = 5-methylcytosine; d = 2'-deoxy (DNA)
Parameter: percent inhibition of Factor XI mRNA, relative to untreated control cells. Scope: all listed entries.
measurement.name: percent inhibition of Factor XI mRNA, relative to untreated control cells (%)

substance	system.under.test	output.unit	numeric.value
416856 (antisense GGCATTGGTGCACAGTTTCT; 5-10-5 gapmer, wing sugar chemistry not given here, further chemistry not given here) [compound 416856]	human Factor XI mRNA	%	74
416922 (antisense eG*e[5mC]*eA*d[5mC]*dA*dG*dT*dT*dT*d[5mC]*dT*dG*dG*d[5mC]*dA*dG*dG*e[5mC]*e[5mC]*eT) [compound 416922]	human Factor XI mRNA	%	75
412203 (antisense eA*eA*eT*eG*eT*d[5mC]*dT*dT*dT*dG*dT*dT*dG*d[5mC]*dA*eA*eG*e[5mC]*eG*e[5mC]) [compound 412203]	human Factor XI mRNA	%	74
416972 (antisense eT*eA*dT*dG*d[5mC]*d[5mC]*d[5mC]*dT*dT*d[5mC]*dA*dT*dG*dT*d[5mC]*eT*eA*eG*eG*eT) [compound 416972]	human Factor XI mRNA	%	69
416923 (antisense eT*eG*e[5mC]*dA*d[5mC]*dA*dG*dT*dT*dT*d[5mC]*dT*dG*dG*d[5mC]*dA*dG*eG*e[5mC]*e[5mC]) [compound 416923]	human Factor XI mRNA	%	67
413476 (antisense eT*eT*eG*eA*eG*dA*dT*dT*d[5mC]*dT*dT*dT*dG*dG*dG*e[5mC]*e[5mC]*eA*eT*eT) [compound 413476]	human Factor XI mRNA	%	77
416973 (antisense eT*eT*dA*dT*dG*d[5mC]*d[5mC]*d[5mC]*dT*dT*d[5mC]*dA*dT*dG*dT*e[5mC]*eT*eA*eG*eG) [compound 416973]	human Factor XI mRNA	%	87
416895 (antisense eT*eA*eT*dG*d[5mC]*d[5mC]*d[5mC]*dT*dT*d[5mC]*dA*dT*dG*dT*d[5mC]*dT*dA*eG*eG*eT) [compound 416895]	human Factor XI mRNA	%	71
416931 (antisense eG*eG*e[5mC]*dA*dT*dT*dG*dG*dT*dG*d[5mC]*dA*d[5mC]*dA*dG*dT*dT*eT*e[5mC]*eT) [compound 416931]	human Factor XI mRNA	%	71
416984 (antisense e[5mC]*eA*dA*d[5mC]*d[5mC]*dG*dG*dG*dA*dT*dG*dA*dT*dG*dA*eG*eT*eG*e[5mC]*eA) [compound 416984]	human Factor XI mRNA	%	81
416825 (antisense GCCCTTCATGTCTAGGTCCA; 5-10-5 gapmer, wing sugar chemistry not given here, further chemistry not given here) [compound 416825]	human Factor XI mRNA	%	92
